Value source: patent US20190367619A1

Target: T1, human galectin-10-His (human)
T1 construct: The last M of the tag may be Met1 of galectin-10; also called humanGal10-His; hGal10
T1 chain: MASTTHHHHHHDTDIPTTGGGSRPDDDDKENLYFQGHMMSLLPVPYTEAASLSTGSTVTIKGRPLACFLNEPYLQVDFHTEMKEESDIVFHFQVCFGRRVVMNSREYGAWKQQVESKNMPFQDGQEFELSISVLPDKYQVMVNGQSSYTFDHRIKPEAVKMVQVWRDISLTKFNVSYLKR
Assay: SPR Biacore (summary table)
hey, just use 1 if measured kon is less than 900000 M⁻¹ s⁻¹, otherwise 0

// known answers, use as guide
Binder	Label
7B07 scFv-human Fc (Fc fusion, also called 007B07; not shown: CH2-CH3 constant domains of human IgG1 (pUPEX50 scFv-Fc fusion vector)) scFv: QVQLVESGGGLVQPGGSLRLSCAASGFTFRSYDMSWVRQAPGKGPEWVSAIKNGGGITYYADSVKGRFTISRDNAKNTLYLQMNSLKPEDTAVYYCATTHGIGTLGFGSWGQGTQVTVSSGGGGSGGGGSGGGGSSYELTQSASVSVALTQTAKITCDGNNIGSKSAQWYQQKPGQAPALVIYADEYRPEGIPERFSGSNSGNTATLIISGAQAEDEADYYCQVWDGSAAVFGRGTHLTVL	0
8H11 scFv-human Fc (Fc fusion, also called 008H11; not shown: CH2-CH3 constant domains of human IgG1 (pUPEX50 scFv-Fc fusion vector)) scFv: ELQLVESGGGLVQPGGSLRLSCAASGFTFSTNYMNWVRQAPGKGLEWVSGITSGGGRTYYADSVKGRFTISRDNAKNTLYLQMNSLKPEDTALYYCARTDHAWLDAWGQGTLVTVSSGGGGSGGGGSGGGGSQAGLTQPPSVSGTLGKTVTISCAGTSSDVGYGNYVSWYQQLPGTAPKLLIYAVSTRASGIPDRFSGSKSGNTASLTISGLLSEDEADYYCASYRSSNNYVFGGGTKLTVL	1
11F02 scFv-human Fc (Fc fusion, also called 011F02; not shown: CH2-CH3 constant domains of human IgG1 (pUPEX50 scFv-Fc fusion vector)) scFv: ELQVVESGGGLVQPGGSLRLSCAASGFTFSTNYMNWVRQAPGKGLEWVSGITSHGARTYYADSVKGRFTISRDNSKNTLYLQMNSLKPEDTALYYCARTDHASLDAWGQGTLVTVSSGGGGSGGGGSGGGGSQTVVTQEPSLSVSPGGTVTLTCGLSSGSVTSSNYPGWYQQKPGQAPRTLIYNTNSRYSGVPNRFSGSISGNKAALTITGAQPEDEADYYCALYMGSSSYNTVFGGGTHLTVL	1
10D02 scFv-human Fc (Fc fusion, also called 010D02; not shown: CH2-CH3 constant domains of human IgG1 (pUPEX50 scFv-Fc fusion vector)) scFv: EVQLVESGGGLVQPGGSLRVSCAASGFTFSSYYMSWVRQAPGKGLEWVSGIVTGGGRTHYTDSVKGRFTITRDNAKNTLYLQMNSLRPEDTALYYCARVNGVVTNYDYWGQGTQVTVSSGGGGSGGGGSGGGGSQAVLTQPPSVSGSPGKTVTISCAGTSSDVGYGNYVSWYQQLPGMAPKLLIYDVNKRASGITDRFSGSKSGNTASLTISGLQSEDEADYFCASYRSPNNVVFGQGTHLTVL	1

### Prompt API: query returns whether the binder falls strictly under 900000 M⁻¹ s⁻¹ in kon. Query: 10B02 scFv-human Fc (Fc fusion, also called 010B02; not shown: CH2-CH3 constant domains of human IgG1 (pUPEX50 scFv-Fc fusion vector)) scFv: QVQLVESGGGLVQPGGSLRVSCAASGFTFSYHYMNWVRQAPGKGLEWVSGISAGGGRTYYADSVKGRFTISRDNAKNTLYLQMNSLNAEDTALYYCARVHGITNDYWGQGTQVTVSSGGGGSGGGGSGGGGSQSALTQPPSVSGSPGKTVTISCAGTSSDVGYGNYVSWYQQLPGMAPKLLIYEVNKRASGITDRFSGSKSGNTAFLTISGLQSEDEADYYCASYRNSNNWVFGGGTHLTVL
### Response 1
